The reported measurements were obtained from paper PMC12310023.

- systemName: CYP2C8 (Homo sapiens, UniProt P10632)
- Sequence (P10632 whole entry): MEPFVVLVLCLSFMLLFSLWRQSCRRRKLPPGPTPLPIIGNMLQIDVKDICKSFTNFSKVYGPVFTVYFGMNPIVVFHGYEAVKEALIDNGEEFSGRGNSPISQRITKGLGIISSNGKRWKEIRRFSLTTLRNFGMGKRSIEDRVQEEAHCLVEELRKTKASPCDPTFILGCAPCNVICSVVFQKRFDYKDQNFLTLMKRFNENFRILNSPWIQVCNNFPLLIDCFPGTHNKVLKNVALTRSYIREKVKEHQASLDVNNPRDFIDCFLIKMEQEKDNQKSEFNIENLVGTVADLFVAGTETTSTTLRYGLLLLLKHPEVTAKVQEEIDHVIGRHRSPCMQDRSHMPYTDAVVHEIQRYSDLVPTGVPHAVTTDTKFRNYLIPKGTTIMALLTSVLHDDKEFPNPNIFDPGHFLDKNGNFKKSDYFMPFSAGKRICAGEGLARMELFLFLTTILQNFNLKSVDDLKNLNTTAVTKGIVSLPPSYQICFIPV
- testSummary: in vitro
- statedConditions: recombinant CYP2C8 supersomes
quantityName: half-life

# input Query (compound): CC1(C)Cn2nc(-c3ccc4cc(OC5CC5)ccc4c3)c(C(N)=O)c2NC1O (stereo not shown) [M2] ; field requested: half-life
# output > 4 h

###

- systemName: Cav1.2 (L-type) (Homo sapiens)
- Sequence (Q13936 whole entry): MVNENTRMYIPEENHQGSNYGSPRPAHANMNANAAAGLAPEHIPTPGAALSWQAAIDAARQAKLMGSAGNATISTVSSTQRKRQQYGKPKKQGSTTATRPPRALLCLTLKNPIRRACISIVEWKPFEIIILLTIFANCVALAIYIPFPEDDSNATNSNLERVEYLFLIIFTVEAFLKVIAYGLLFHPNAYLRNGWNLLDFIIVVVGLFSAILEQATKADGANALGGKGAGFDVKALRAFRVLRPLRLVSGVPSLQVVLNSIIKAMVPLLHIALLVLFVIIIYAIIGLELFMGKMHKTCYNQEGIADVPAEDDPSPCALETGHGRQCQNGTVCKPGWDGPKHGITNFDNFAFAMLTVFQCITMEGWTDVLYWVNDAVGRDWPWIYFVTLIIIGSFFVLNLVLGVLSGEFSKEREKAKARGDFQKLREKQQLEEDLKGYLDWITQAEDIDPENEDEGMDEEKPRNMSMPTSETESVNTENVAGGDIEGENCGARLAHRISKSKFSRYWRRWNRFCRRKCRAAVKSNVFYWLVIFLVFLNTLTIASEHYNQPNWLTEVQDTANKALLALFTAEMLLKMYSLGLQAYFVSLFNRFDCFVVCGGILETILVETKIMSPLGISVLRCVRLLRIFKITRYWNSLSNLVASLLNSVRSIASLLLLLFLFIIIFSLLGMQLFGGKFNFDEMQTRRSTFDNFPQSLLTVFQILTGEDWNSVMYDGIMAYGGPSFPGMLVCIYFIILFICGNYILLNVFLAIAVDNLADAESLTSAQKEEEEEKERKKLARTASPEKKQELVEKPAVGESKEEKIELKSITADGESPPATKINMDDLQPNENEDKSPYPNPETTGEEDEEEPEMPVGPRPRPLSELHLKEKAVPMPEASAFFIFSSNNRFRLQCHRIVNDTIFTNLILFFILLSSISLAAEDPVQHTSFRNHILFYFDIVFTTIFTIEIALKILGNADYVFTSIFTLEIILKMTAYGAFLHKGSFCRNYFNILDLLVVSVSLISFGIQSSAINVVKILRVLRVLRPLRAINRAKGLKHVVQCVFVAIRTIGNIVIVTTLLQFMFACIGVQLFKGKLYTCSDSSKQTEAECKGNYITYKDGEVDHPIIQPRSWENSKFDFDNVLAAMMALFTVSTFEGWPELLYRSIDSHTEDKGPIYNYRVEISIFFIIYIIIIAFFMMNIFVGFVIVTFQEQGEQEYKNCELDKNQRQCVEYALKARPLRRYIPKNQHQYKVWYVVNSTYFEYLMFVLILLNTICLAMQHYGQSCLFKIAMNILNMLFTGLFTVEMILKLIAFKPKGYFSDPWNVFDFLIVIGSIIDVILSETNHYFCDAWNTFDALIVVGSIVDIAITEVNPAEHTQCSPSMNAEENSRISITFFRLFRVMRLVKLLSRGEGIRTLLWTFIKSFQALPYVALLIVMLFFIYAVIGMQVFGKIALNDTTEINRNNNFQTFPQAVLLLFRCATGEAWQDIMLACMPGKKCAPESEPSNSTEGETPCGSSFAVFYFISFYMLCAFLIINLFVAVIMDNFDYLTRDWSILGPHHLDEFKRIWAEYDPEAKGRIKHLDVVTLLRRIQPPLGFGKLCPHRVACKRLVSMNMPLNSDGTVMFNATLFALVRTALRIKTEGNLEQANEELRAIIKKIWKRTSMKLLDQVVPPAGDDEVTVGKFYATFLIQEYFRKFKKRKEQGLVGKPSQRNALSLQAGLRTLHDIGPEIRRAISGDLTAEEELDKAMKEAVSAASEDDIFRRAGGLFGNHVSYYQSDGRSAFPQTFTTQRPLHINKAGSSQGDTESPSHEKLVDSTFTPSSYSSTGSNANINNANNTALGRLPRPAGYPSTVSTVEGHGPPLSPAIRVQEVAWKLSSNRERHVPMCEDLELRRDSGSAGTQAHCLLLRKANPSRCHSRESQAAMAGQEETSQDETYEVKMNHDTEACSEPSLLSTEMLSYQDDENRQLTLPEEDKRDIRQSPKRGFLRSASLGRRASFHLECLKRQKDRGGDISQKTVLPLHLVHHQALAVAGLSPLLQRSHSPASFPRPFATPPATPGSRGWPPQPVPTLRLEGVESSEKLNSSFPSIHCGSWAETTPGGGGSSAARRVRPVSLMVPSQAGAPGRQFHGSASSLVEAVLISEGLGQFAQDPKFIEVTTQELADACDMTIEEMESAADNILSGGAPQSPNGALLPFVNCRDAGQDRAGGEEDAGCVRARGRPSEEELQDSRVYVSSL
- Sequence (Q08289 whole entry partner): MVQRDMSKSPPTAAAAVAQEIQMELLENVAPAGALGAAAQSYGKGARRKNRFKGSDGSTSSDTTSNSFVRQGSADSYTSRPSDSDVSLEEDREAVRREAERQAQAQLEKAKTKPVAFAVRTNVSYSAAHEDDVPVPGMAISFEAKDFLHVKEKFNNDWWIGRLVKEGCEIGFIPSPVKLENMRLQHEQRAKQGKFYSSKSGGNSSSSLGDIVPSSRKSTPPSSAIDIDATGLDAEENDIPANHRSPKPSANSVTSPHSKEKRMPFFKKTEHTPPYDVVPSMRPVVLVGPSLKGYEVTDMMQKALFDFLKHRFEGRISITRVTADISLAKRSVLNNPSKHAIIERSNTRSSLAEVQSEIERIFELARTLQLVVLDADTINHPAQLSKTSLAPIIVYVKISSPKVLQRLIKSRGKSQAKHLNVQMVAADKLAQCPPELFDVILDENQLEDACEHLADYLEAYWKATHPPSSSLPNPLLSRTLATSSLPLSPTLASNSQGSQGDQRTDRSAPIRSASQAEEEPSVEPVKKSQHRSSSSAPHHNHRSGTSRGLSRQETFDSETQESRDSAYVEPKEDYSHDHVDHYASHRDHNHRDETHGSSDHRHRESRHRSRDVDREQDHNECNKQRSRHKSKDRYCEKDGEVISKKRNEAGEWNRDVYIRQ
- testSummary: Bioprofiling panel functional assay
- statedConditions: 6 pt dilutions starting at 10 μM; read-out: IC50, antagonist readout
quantityName: IC50
Provide a numeric answer, followed by its unit.

# input Query (molecule): CC1(C)Cn2nc(-c3ccc4cc(OC5CC5)ccc4c3)c(C(N)=O)c2NC1O (stereo not shown) ; field requested: IC50
# output 8.1 µM
